test: gradient 5% acetonitrile 3 min, to 50% in 2 min, to 85% in 15 min, held 3 min, 100 µL/min; details: column: Zorbax Extend-C18 2.1 x 50 mm; eluents: water / acetonitrile, 0.1% formic acid
ASSAY METRIC: RP-LC retention time (s)
Could you give me the number in s? Just the number is fine.

The compound `CCCNC(=O)N1CCc2c(c(-c3nc(-c4ccccc4)no3)nn2C)C1` showed RP-LC retention time equal to 825

Quick note, RP-LC retention time for `Cc1noc([C@@H]2CC(F)(F)CN2S(=O)(=O)c2ccccc2)n1` landed at 858

So for CC1CC(=O)N(CC(=O)Nc2cccc(C(F)(F)F)c2)c2ccccc2S1(=O)=O (centres undefined) , the logged RP-LC retention time turned out to be 875

Entry `Cc1cccc(NC(=O)Cn2nc3n(c2=O)CCCCC3)c1C` ; RP-LC retention time = 675

Field RP-LC retention time (entry O=C(c1cc(F)ccc1F)N1CCN(C(=O)c2nnn3c2COC(c2ccc(Cl)cc2)C3)CC1 (centres undefined) ) reads 937

The recorded RP-LC retention time for `CCCN1C(=O)c2cc(S(=O)(=O)Nc3ccc(F)cc3F)ccc2Oc2cccnc21` is 1050

Data point: `Cc1nnc(N2CCC(C(=O)N3CCN(C)CC3)CC2)c2nn(-c3ccccc3)c(C)c12` ; RP-LC retention time = 573

For reference, reported RP-LC retention time for `Cc1cc(C)n(Cc2nc(-c3ccc(NC(=O)Cc4ccc(F)cc4)cc3)oc2C)n1` stands at 917

Input `Cc1cccc(-c2noc(-c3ccc(N4CCN(c5ccccc5F)CC4)nc3)n2)c1` . Output RP-LC retention time: 613

Value of measured RP-LC retention time for the entry O=C(c1ccc(Cl)cc1)N(CC1CCOC1)C1CC1 (centres undefined) : 791

The compound listed as `O=C(NC1CC1)c1ccc2c(c1)CCN2C(=O)C1CCC1` shows RP-LC retention time equal to 721

So, COc1ccc(CC(=O)N2CCCC2c2c(C)noc2C)cc1OC (centres undefined) ? Its RP-LC retention time was 696

Per the record, CCOC(=O)c1c(C)[nH]c(C(=O)N2CCC(C(C)C(=O)NCc3ccccc3C)CC2)c1C (centres undefined) has RP-LC retention time of 851

Form: compound = CCCNC(=O)C12CCC(C)(C(=O)C1)C2(C)C (centres undefined) ; RP-LC retention time = 657

Per the record, `COC(=O)C1=CN(c2ccc(F)c(F)c2)c2cc(F)ccc2S1(=O)=O` has RP-LC retention time of 860

The recorded RP-LC retention time for `CC(=O)N1CCCSc2ccc(S(=O)(=O)N(C)c3ccc(C)c(C)c3)cc21` is 1030

The recorded RP-LC retention time for entry `Cc1ccc(-c2cc3c(=O)n(Cc4noc(CN5CCSCC5)n4)ccn3n2)c(C)c1` equals 962

Summary for this compound, `CC(=O)c1ccc(N2CCN(C(=O)c3ccc(-n4cccn4)nn3)CC2)cc1` : RP-LC retention time is 695

Quick note, RP-LC retention time for CCOc1ccc(NCC(O)Cn2c3ccccc3n3c(=O)cc(C)c(C#N)c23)cc1 (centres undefined) landed at 668

RP-LC retention time for CS(=O)(=O)N1CCC(C(=O)N2CC3CC(C2)c2cccc(=O)n2C3)CC1 (centres undefined) is 528

RP-LC retention time for `O=C(NCc1csc(-c2ccccc2)n1)[C@H]1CCCN1C(=O)c1cccc(Br)c1` is 889

RP-LC retention time measured on `CC(C)C(=O)Nc1cccn2nc(C(C)C)nc12` = 780

Input `CC(C)Cc1ccc(S(=O)(=O)N(C)CC2CCOCC2)cc1` . Output RP-LC retention time: 1010

// field: RP-LC retention time; key: `O=C(Cn1c(-c2cccs2)cc2cc(F)ccc21)NCCCN1CCOCC1` ; value = 671

Memo: `CC(C)Cn1cc(CCNS(=O)(=O)c2cccc(Br)c2)c2cccnc21` , reported RP-LC retention time: 990

// sample CCOc1ccccc1NC(=O)N1CCCC(C)(C(=O)NCc2ccc(F)cc2)C1 (centres undefined) , its RP-LC retention time was 983

// RP-LC retention time value for `COC(=O)c1ccc(NC(=O)c2sc(-c3cn(C)c4ncccc34)nc2C)cc1` : 1080

# RP-LC retention time (compound: Cc1cc(Cl)ccc1NC(=O)C1CCN(C(=O)c2ncn3c2COC(c2ccc(F)cc2)C3)CC1 (centres undefined) ) is 871

Summary for this compound, `CCOc1nccnc1NC1CCN(C(=O)c2ccco2)CC1` : RP-LC retention time is 585

The value of RP-LC retention time measured for the compound `CCCn1cc(C(=O)NCc2ccccn2)c2cccnc21` turned out to be 595

GET /value?item= `CC(C)Cc1noc(C2(F)CCN(S(=O)(=O)c3ccc(Cl)c(Cl)c3)CC2)n1` &field=RP-LC retention time returns 1300

The reported RP-LC retention time of the compound `COCCn1cc(CCNC(=O)Nc2cccc(Cl)c2F)c2cccnc21` was 798

RP-LC retention time reported for this compound CN(C)C(CNC(=O)c1ccccc1C(F)(F)F)c1cn(C)c2ccccc12 (centres undefined) : 602

Query `CCN1CCCn2cc(S(=O)(=O)Nc3ccc(F)cc3)cc2C1=O` yields RP-LC retention time of 721

In plain terms, `O=C(CN1C(=O)CCc2cc(Br)ccc21)N1CCN(c2ccc(F)cc2)CC1` has a documented RP-LC retention time of 949

Per the record, `COc1ccccc1Oc1ccc(S(=O)(=O)NCc2ccco2)cc1` has RP-LC retention time of 873

get_value(item= `Cc1cc(Cl)ccc1S(=O)(=O)N1CC(Cc2nncn2C2CCCC2)C1` , readout=RP-LC retention time) returns 808

Value of RP-LC retention time reported for the compound CC(=O)N1c2ccc(S(=O)(=O)N3CCCCC3)cc2CC1C(=O)NCc1ccc(N(C)C)cc1 (centres undefined) is 879

`O=C(Cn1c(CO)cnc1SCc1ccc(Cl)c(Cl)c1)NC1CC1` has a reported RP-LC retention time of 585
